Listed here: items and their measured IC50.
Test system: JEV RVP
Assay: microbe, parasite or virus in culture
Conditions: Japanese encephalitis virus, Vero, 24 h
Structures can show the parent of a compound that is named as a salt.

# compound, measurementTarget, uom, IC50
measured = [
    ("COC(=O)C1=C(C)NC(C)=C(C(=O)OCCN2CCN(C(c3ccccc3)c3ccccc3)CC2)C1c1cccc([N+](=O)[O-])c1 (centres unmarked)", "JEV RVP", "µM", 1.6),
    ("COC(=O)C1=C(C)NC(C)=C(C(=O)OC2CCCN(Cc3ccccc3)C2)C1c1cccc([N+](=O)[O-])c1 (centres unmarked) [Benidipine hydrochloride]", "JEV RVP", "µM", 3.7),
    ("COCCOC(=O)C1=C(C)NC(C)=C(C(=O)OC/C=C/c2ccccc2)C1c1cccc([N+](=O)[O-])c1 (centres unmarked)", "JEV RVP", "µM", 3.5),
    ("CC[C@@H]1/C=C(\\C)C[C@H](C)C[C@H](OC)[C@H]2O[C@@](O)(C(=O)C(=O)N3CCCC[C@H]3C(=O)O[C@H](/C(C)=C/[C@@H]3CC[C@H](Cl)[C@H](OC)C3)[C@H](C)[C@@H](O)CC1=O)[C@H](C)C[C@@H]2OC", "JEV RVP", "µM", 3.1),
    ("Cc1c(O)cccc1C(=O)N[C@@H](CSc1ccccc1)[C@H](O)CN1C[C@H]2CCCC[C@H]2C[C@H]1C(=O)NC(C)(C)C [Nelfinavir Mesylate]", "JEV RVP", "µM", 1.6),
    ("Clc1ccc(CCC(Cn2ccnc2)Sc2c(Cl)cccc2Cl)cc1 (centres unmarked) [Butoconazole Nitrate]", "JEV RVP", "µM", 4),
    ("CCOC(=O)C1=C(C)NC(C)=C(C(=O)OCC)C1c1ccccc1/C=C/C(=O)OC(C)(C)C", "JEV RVP", "µM", 3.5),
    ("Clc1ccc(C(c2ccccc2Cl)C(Cl)Cl)cc1 (centres unmarked)", "JEV RVP", "µM", 6.6),
]

The measurements presented in this section are drawn from paper PMC5640845.
